These data points were gathered from ChEMBL document CHEMBL1130619.

# key: entry, value: Ki
target: Phosphodiesterase 4 (Homo sapiens, UniProt P27815+Q08499+Q07343+Q08493); experiment: Displacement of [3H]rolipram binding to guinea pig brain membrane; format: tissue-based, Cavia porcellus; settings: target entry is the homologue from another species
Report as a plain number; the unit µM is understood.

Prompt line: Fill in the blank: the reported Ki of COc1ccc(C2(Cc3ccncc3)C(=O)N(C(=O)OC(C)(C)C)c3ccccc32)cc1OC1CCCC1 (configuration not stated) is ____.
Response line: 2.8

Prompt line: Fill in the blank: the reported Ki of COc1ccc(C2(Cc3ccncc3)C(=O)Nc3ccccc32)cc1OC1CCCC1 (configuration not stated) is ____.
Response line: 0.2

* * *

# key: entry, value: IC50
target: Phosphodiesterase 4 (Homo sapiens, UniProt P27815+Q08499+Q07343+Q08493); assay: Inhibition of guinea pig macrophage Phosphodiesterase 4; assay type: protein assay, Cavia porcellus; details: target entry is the homologue from another species
Report as a plain number; the unit nM is understood.

The following compounds have reported results that may help.
compound: COc1ccc(C2(Cc3ccccc3)C(=O)Nc3ccccc32)cc1OC1CCCC1 (stereo not given)
data.value: 1000
//
compound: COc1ccc(C2(Cc3cccnc3)C(=O)Nc3ccccc32)cc1OC1CCCC1 (stereo not given)
data.value: 400
//
compound: COc1ccc(C2(Cc3ccncc3)C(=O)N(S(=O)(=O)c3ccc(C)cc3)c3ccccc32)cc1OC1CCCC1 (stereo not given)
data.value: 2400
//
compound: COc1ccc(C2(Cc3ccncc3)C(=O)N(C(=O)N(C)C)c3ccccc32)cc1OC1CCCC1 (stereo not given)
data.value: 1700

From here, focus on the item given below.
Prompt line: Fill in the blank: the reported IC50 of COc1ccc(C2C(=O)Nc3ccccc32)cc1OC1CCCC1 (stereo not given) is ____.
Response line: 6000

* * *

# key: entry, value: IC50
target: Phosphodiesterase 4 (Homo sapiens, UniProt P27815+Q08499+Q07343+Q08493); assay: Inhibition of guinea pig macrophage Phosphodiesterase 4; type: protein assay, Cavia porcellus; details: target entry is the homologue from another species
Write the figure, then the unit, nothing else.

compound: COc1ccc(C2(Cc3ccncc3)C(=O)N(Cc3ccccc3)c3ccccc32)cc1OC1CCCC1 (configuration not stated)
readout.kind: IC50
data.value: 2 µM
//
compound: COc1ccc(C2(Cc3ccncc3)C(=O)Nc3ccccc32)cc1OC1CCCC1 (configuration not stated)
readout.kind: IC50
data.value: 0.6 µM
//
compound: COc1ccc(C2(Cc3cc[n+]([O-])cc3)C(=O)Nc3ccccc32)cc1OC1CCCC1 (configuration not stated)
readout.kind: IC50
data.value: 1.2 µM
//
compound: COc1ccc(C2(Cc3ccccn3)C(=O)Nc3ccccc32)cc1OC1CCCC1 (configuration not stated)
readout.kind: IC50
data.value: 0.7 µM
//
compound: COc1ccc(C2(Cc3ccncc3)C(=O)N(Cc3ccncc3)c3ccccc32)cc1OC1CCCC1 (configuration not stated)
readout.kind: IC50
data.value: 1 µM
//
compound: COc1ccc([C@H](Cc2ccncc2)c2ccccc2)cc1OC1CCCC1
readout.kind: IC50
data.value: 0.0045 µM

Prompt line: Fill in the blank: the reported IC50 of COc1ccc(C2(Cc3ccncc3)C(=O)N(C(=O)OC(C)(C)C)c3ccccc32)cc1OC1CCCC1 (configuration not stated) is ____.
Response line: 0.7 µM

* * *

molecular target: Phosphodiesterase 4 (Homo sapiens, UniProt P27815+Q08499+Q07343+Q08493); assay: Displacement of [3H]rolipram binding to guinea pig brain membrane; type: tissue-based, Cavia porcellus; settings: target entry is the homologue from another species
# key: entry, value: Ki

The following compounds have reported results that may help.
compound: COc1ccc(C2(Cc3ccccn3)C(=O)Nc3ccccc32)cc1OC1CCCC1 (stereo not given)
data.value: > 3.7 µM
//
compound: COc1ccc(C2(Cc3ccncc3)C(=O)N(S(=O)(=O)c3ccc(C)cc3)c3ccccc32)cc1OC1CCCC1 (stereo not given)
data.value: > 3.7 µM
//
compound: COc1ccc(C2(Cc3ccncc3)C(=O)N(Cc3ccncc3)c3ccccc32)cc1OC1CCCC1 (stereo not given)
data.value: > 3.7 µM
//
compound: COc1ccc(C2(Cc3ccncc3)C(=O)N(Cc3ccccc3)c3ccccc32)cc1OC1CCCC1 (stereo not given)
data.value: > 3.7 µM
//
compound: COc1ccc(C2(Cc3cccnc3)C(=O)Nc3ccccc32)cc1OC1CCCC1 (stereo not given)
data.value: 2.6 µM

From here, focus on the item given below.
Prompt line: Request - read-out Ki | tested on Phosphodiesterase 4 (Homo sapiens, UniProt P27815+Q08499+Q07343+Q08493) | compound `COc1ccc([C@H](Cc2ccncc2)c2ccccc2)cc1OC1CCCC1`
Response line: 0.06 µM

* * *

molecular target: Phosphodiesterase 4 (Homo sapiens, UniProt P27815+Q08499+Q07343+Q08493); assay: Displacement of [3H]rolipram binding to guinea pig brain membrane; type: tissue-based, Cavia porcellus; conditions: target entry is the homologue from another species
readout.kind: Ki

The following compounds have reported results that may help.
compound: COc1ccc(C2(Cc3ccncc3)C(=O)N(C(=O)N(C)C)c3ccccc32)cc1OC1CCCC1 (centres undefined)
data.value: 2.4 µM

compound: COc1ccc(C2(Cc3ccccc3)C(=O)Nc3ccccc32)cc1OC1CCCC1 (centres undefined)
data.value: > 3.7 µM

compound: COc1ccc(C2C(=O)Nc3ccccc32)cc1OC1CCCC1 (centres undefined)
data.value: > 3.7 µM

Prompt line: Fill in the blank: the reported Ki of COc1ccc(C2(Cc3cc[n+]([O-])cc3)C(=O)Nc3ccccc32)cc1OC1CCCC1 (centres undefined) is ____.
Response line: > 3.7 µM
